Quick reference: protein stability index of the listed items.
B1: COX4I1 (parent)
chain: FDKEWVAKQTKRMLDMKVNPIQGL

# Variants of: B1
# RUN_DESCRIPTION: protein stability index of a GFP-peptide fusion (GPS, HEK-293T) (PSI 1-6); higher = more stable;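 further: lentivirally expressed fusions sorted by FACS into six bins by GFP to DsRed ratio, PSI derived from sequencing read proportions per bin multiplied by bin number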
# CONDITION_LABEL: c terminus: a fixed tail appended
Write the value as a bare number.

* K11S | 2.28
* M13N | 2.23
* R12A | 1.88
* K8Q | 1.18
* P20K | 1.55

**Q:** Need protein stability index of `D2I` , thanks.
**A:** 2.45

**Q:** Then this variant: `G23Y`
**A:** 1.92
